Numbers sourced from patent US8119624B2.

ASSAY SYSTEM: Full-length glucokinase (beta cell isoform) (Homo sapiens)
Construct: Full-length glucokinase (beta cell isoform) was His-tagged at N-terminus; His tag (N); made in house
METHOD SUMMARY: Glucokinase biochemical assay (PK/LDH-coupled, NADH depletion at 340 nm): % activation, EC50, % max activation
DETAILS: 10 uM compound; 5 mM glucose; % Activation=(Va/Vo−1)×100; read-out: % Activation at 10 uM
QUANTITY NAME: activation at 10 µM (%)

Cn1ccc(NC(=O)c2cc(Oc3ccc(S(C)(=O)=O)cc3)c3c(c2)OC(C(F)F)C3)n1 (stereo not shown)	103

(I) Cn1ccc(NC(=O)c2cc(Oc3ccc(S(C)(=O)=O)cc3)c3c(c2F)OC(C)(C)C3)n1
(II) Cn1ccc(NC(=O)c2cc(Oc3ccc(S(=O)(=O)N4CCC4)cc3)c3c(c2)OC(C)(C)C3)n1
Q: Of I and II , which carries the smaller reported activation at 10 µM figure? Give the label of your selection.
Result: I

###

ASSAY SYSTEM: Full-length glucokinase (beta cell isoform) (Homo sapiens)
Construct: Full-length glucokinase (beta cell isoform) was His-tagged at N-terminus; His tag (N); made in house
METHOD SUMMARY: Glucokinase biochemical assay (PK/LDH-coupled, NADH depletion at 340 nm): % activation, EC50, % max activation
DETAILS: 10 uM compound; 5 mM glucose; % Activation=(Va/Vo−1)×100; read-out: % Activation at 10 uM
QUANTITY NAME: activation at 10 µM (%)

As a guide, the following entries are already answered.
Cc1ccc(NC(=O)c2cc(Oc3ccc(S(C)(=O)=O)cc3)c3cc(C(=O)N4CCC4)oc3c2)nc1 [Example 290]	12.8
COCC1Cc2c(Oc3ccc(C(=O)N(C)C)cc3)cc(C(=O)Nc3ccn(C)n3)cc2O1 (centres unmarked) [Example 211]	83.5
COc1cnc(NC(=O)c2cc(Oc3ccc(S(C)(=O)=O)cc3)c3cc(C(=O)N(C)C)oc3c2)cn1 [Example 287]	80.3
CCS(=O)(=O)c1ccc(Oc2cc(C(=O)Nc3cnn(C)n3)cc3c2CC(C)(C)O3)cc1F [Example 135]	239

(A) CC(Oc1cc(C(=O)Nc2ccn(C)n2)cc2c1CC(C)(C)O2)c1ccncn1 (centres unmarked) [Example 86]
(B) Cn1ccc(NC(=O)c2cc(Oc3ccc(C(=O)NC4CC4)c(F)c3)c3c(c2)OC(C)(C)C3)n1 [Example 73]
Q: Lab note: check whether A or B shows the higher recorded activation at 10 µM. Give the label of your selection.
Result: B
(B: 254%, A: 124%)

(I) CN(C)C(=O)c1cc(F)c(Oc2cc(C(=O)Nc3ccn(C)n3)cc3c2CC(C)(C)O3)cc1F [Example 109]
(II) CC(C)Oc1cc(C(=O)Nc2ccccn2)cc2c1CC(Cc1ccccc1)O2 (centres unmarked) [Example 220]
Q: Of I and II , which carries the smaller reported activation at 10 µM figure? Give the label of your selection.
Result: II

###

ASSAY SYSTEM: Full-length glucokinase (beta cell isoform) (Homo sapiens, UniProt P35557)
Construct: Full-length glucokinase (beta cell isoform) was His-tagged at N-terminus; His tag (N); made in house
Sequence (P35557 whole entry, species assumed, canonical isoform): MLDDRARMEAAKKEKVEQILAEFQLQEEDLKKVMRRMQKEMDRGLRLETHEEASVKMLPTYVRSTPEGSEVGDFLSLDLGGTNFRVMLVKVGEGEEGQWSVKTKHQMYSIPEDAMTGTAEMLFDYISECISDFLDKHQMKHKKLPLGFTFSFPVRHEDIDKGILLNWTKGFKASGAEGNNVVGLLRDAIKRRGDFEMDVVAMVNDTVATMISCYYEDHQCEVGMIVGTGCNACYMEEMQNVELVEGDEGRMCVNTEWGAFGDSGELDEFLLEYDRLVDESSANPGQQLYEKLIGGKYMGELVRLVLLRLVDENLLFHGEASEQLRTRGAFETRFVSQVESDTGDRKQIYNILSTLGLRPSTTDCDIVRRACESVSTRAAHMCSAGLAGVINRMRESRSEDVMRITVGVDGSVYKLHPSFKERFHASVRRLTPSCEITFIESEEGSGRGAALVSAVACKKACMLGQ
METHOD SUMMARY: Glucokinase biochemical assay (PK/LDH-coupled, NADH depletion at 340 nm): % activation, EC50, % max activation
DETAILS: 5 mM glucose; fitted maximum activation; read-out: % Max Activation
QUANTITY NAME: Emax (%)

Cc1nc(COc2cc(C(=O)Nc3ccn(C)n3)cc3c2CC(C)(C)O3)cs1	138
Cn1ccc(NC(=O)c2cc(Oc3ccc(C#N)cc3F)c3c(c2)OC(C)(C)C3)n1	153
Cn1ccc(NC(=O)c2cc(Oc3ccc(C(=O)N4CCC4)cc3)c3c(c2)OC(C)(C)C3)n1	145

(A) Cc1ccc(NC(=O)c2cc(Oc3ccc(S(C)(=O)=O)cc3)c3c(c2)OC(C)(CO)C3)nc1 (stereo not shown)
(B) Cc1nc(COc2cc(C(=O)Nc3ccn(C)n3)cc3c2CC(C)(C)O3)no1
(C) Cn1ncc(NC(=O)c2cc(Oc3ccc(S(C)(=O)=O)cc3)c3c(c2)OC(C)(C)C3)n1
Q: Which order do these items take when sorted by rising Emax? List them. Please list the labels in the order you were asked to rank them.
Result: A, B, C
